Test system: ECU
testDetails: qHTS profiling for inhibitors of Plasmodium falciparum proliferation (AID 504749); note: nearly all actives have a fitted effect of over 60% in size
appliedConditions: P. falciparum in erythrocytes, SYBR Green DNA, 72 h; series mostly up to 28.7 µM
Results filed as inconclusive are left out. Activity calls are given as the source filed them. Calls come from the whole dose curve; as a rule, active = well fitted inhibition curve with a large enough effect; inconclusive = small, poorly fitted or top-dose-only effect; inactive = flat fitted curve, though single readings scatter. Peptide text beside a SMILES is read from it.
Bench note: report the call from t for active, f for inactive

Q: What did this assay record as the result for C[C@@H]1CCC2[C@@H](C)[C@@H](O)O[C@@H]3O[C@@]4(C)CC[C@@H]1[C@@]23OO4 (stereo partly drawn) ?
Ans: t

Q: Tell me the recorded outcome of this test for O=CCCCC=O .
Ans: f

Q: Recorded call for CCCCCCCCCCCCCCCC(=O)OCC(COC(=O)CCCCCCCCCCCCCCC)OC(=O)CCCCCCCCCCCCCCC ?
Ans: f

Q: Identify the outcome logged in this assay for the compound shown: CCOc1ccc2c(c1)C(C)=CC(C)(C)N2
Ans: f

Q: Fill in: this test's call for Nc1c(Br)cc(Br)cc1CNC1CCC(O)CC1 (stereo not drawn) is ___
Ans: f

Q: Fill in: this test's call for COc1cc(-c2ccc(-[n+]3nc(-c4ccccc4)nn3-c3ccc([N+](=O)[O-])cc3)c(OC)c2)ccc1-[n+]1nc(-c2ccccc2)nn1-c1ccc([N+](=O)[O-])cc1 is ___
Ans: t

Q: Record request — test call for COC(=O)C1=C(C#N)NC(C)=C(C(=O)OC(C)C)C1c1cccc([N+](=O)[O-])c1 (stereo not drawn)
Ans: t

Q: // outcome(item) with item = CC[N+](C)(C)Cc1ccccc1Br
Ans: f

Q: Check the results log: what was the call for CC(=O)N[C@@H](CC(=O)O)C(=O)N[C@@H](CCC(=O)O)C(=O)O (Ac-Asp-Glu-OH) ?
Ans: f

Q: What outcome does the record of this test show for CCCC(=O)Nc1ncnc2c1ncn2C1OC2COP(=O)(O)OC2C1OC(=O)CCC (stereo not drawn) ?
Ans: f

Q: Which result was noted for this compound in the test: NC(=O)c1ncn(C2OC(CO)C(O)C2O)n1 (stereo not drawn)
Ans: f

Q: For this compound, state the assay outcome: CC1=C(/C=C/C(C)=C/C=C/C(C)=C/C=C/C=C(C)/C=C/C=C(C)/C=C/C2=C(C)C(=O)CCC2(C)C)C(C)(C)CCC1=O
Ans: f

Q: Hi, sorry to bother you, what did the test record for O=S(=O)(O)c1cc(O)c2c(N=Nc3ccc(Nc4ccccc4)c4c(S(=O)(=O)O)cccc34)cc(S(=O)(=O)O)cc2c1 ?
Ans: f
